Biological target: PI3Kδ (p110δ/p85α) Recombinant Human Protein (Homo sapiens (Human), UniProt O00329)
Sequence (O00329 whole entry): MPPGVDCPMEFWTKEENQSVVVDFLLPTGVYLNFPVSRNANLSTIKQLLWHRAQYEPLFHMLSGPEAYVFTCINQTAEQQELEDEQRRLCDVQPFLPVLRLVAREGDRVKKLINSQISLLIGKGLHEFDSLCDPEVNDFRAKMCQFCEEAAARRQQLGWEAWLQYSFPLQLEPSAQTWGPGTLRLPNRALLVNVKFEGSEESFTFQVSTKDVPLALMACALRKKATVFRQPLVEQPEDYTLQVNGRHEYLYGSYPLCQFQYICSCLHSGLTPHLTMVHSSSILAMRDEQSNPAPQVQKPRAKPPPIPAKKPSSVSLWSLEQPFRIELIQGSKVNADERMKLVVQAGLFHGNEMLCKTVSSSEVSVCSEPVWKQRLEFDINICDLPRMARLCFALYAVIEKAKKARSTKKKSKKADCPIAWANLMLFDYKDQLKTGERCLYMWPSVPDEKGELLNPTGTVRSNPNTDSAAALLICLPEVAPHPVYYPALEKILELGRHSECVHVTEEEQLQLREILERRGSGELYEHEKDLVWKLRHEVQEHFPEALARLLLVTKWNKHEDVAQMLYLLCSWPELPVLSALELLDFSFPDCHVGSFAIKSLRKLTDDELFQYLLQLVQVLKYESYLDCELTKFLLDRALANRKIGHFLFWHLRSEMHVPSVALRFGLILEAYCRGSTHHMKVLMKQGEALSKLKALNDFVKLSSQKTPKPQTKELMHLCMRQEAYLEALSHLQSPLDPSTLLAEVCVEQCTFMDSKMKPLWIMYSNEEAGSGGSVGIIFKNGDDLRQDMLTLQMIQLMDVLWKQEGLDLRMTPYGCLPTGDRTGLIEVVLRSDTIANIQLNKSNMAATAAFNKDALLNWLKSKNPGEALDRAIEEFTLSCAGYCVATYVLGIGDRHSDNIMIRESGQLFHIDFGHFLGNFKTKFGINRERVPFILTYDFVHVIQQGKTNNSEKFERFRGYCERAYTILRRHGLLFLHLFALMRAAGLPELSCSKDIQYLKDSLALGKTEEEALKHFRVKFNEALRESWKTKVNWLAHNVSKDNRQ
Sequence (P27986 whole entry partner): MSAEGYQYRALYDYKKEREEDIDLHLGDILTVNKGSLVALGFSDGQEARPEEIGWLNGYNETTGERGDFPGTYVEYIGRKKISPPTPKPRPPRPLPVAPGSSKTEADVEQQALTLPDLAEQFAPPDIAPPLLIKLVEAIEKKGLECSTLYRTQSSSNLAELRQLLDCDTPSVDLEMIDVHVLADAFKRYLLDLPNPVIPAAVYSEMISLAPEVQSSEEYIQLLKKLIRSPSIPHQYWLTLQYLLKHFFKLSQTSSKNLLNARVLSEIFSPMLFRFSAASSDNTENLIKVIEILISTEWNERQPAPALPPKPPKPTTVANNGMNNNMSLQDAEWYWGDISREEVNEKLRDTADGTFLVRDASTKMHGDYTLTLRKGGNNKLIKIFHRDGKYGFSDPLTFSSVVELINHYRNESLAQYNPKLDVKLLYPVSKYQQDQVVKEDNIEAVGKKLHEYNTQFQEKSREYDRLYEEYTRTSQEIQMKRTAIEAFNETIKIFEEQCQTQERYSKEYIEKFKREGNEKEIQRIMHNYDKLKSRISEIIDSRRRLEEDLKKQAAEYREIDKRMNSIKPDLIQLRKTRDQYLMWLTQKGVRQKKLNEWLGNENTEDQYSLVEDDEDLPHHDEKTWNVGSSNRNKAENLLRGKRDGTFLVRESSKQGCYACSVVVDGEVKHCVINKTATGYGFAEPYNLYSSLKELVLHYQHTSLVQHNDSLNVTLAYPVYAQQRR
Assay: PI3Kδ Scintillation Proximity Assay
Settings: 20 μM PIP2, 2 μM ATP, 3.4 nM PI3Kδ, 120 min, room temperature
pIC50: −log10 of the molar value. Where a name gives a salt, the structure may show the parent alone.
parameter: pIC50

                                   compound  experimental_result
0  O=C(O)C(F)(F)F.[2H]C([2H])([2H])c1ccc(S(=O)(=O)NC23CNC(C2)C3)cc1-c1cnc(N)c(-c2cnco2)n1 [Example 56]               ≥ 6.30
1  [2H]C([2H])([2H])c1ccc(S(=O)(=O)NC23CCC(O)(CC2)C3)cc1-c1cnc(N)c(-n2cncn2)n1 [Example 47, Trifluoroacetate Salt]               ≥ 7.00
2  [2H]C([2H])([2H])c1ccc(S(=O)(=O)NC23CCC(C#N)(C2)C3)cc1-c1cnc(N)c(-c2ncccn2)n1 [Example 70, trifluoroacetate salt]               > 5.70
3  Cc1ccc(S(=O)(=O)NC23CCC(C#N)(C2)C3)cc1-c1cnc(N)c(-n2cccn2)n1 [Example 62, Trifluoroacetate Salt]               ≥ 7.00
4  Cc1ccc(S(=O)(=O)NC23CNC(C2)C3)cc1-c1cnc(N)c(-n2ccnn2)n1 [Example 59, trifluoroacetate salt]               ≥ 6.30
5  Cc1ccc(S(=O)(=O)NC23COC(CO)(C2)C3)cc1-c1cnc(N)c(-n2cncn2)n1 [Example 27, trifluoroacetate salt]               ≥ 6.30
